# ASSAY SYSTEM: hERG channel (Homo sapiens (Human), UniProt Q12809)
# Sequence (Q12809 whole entry): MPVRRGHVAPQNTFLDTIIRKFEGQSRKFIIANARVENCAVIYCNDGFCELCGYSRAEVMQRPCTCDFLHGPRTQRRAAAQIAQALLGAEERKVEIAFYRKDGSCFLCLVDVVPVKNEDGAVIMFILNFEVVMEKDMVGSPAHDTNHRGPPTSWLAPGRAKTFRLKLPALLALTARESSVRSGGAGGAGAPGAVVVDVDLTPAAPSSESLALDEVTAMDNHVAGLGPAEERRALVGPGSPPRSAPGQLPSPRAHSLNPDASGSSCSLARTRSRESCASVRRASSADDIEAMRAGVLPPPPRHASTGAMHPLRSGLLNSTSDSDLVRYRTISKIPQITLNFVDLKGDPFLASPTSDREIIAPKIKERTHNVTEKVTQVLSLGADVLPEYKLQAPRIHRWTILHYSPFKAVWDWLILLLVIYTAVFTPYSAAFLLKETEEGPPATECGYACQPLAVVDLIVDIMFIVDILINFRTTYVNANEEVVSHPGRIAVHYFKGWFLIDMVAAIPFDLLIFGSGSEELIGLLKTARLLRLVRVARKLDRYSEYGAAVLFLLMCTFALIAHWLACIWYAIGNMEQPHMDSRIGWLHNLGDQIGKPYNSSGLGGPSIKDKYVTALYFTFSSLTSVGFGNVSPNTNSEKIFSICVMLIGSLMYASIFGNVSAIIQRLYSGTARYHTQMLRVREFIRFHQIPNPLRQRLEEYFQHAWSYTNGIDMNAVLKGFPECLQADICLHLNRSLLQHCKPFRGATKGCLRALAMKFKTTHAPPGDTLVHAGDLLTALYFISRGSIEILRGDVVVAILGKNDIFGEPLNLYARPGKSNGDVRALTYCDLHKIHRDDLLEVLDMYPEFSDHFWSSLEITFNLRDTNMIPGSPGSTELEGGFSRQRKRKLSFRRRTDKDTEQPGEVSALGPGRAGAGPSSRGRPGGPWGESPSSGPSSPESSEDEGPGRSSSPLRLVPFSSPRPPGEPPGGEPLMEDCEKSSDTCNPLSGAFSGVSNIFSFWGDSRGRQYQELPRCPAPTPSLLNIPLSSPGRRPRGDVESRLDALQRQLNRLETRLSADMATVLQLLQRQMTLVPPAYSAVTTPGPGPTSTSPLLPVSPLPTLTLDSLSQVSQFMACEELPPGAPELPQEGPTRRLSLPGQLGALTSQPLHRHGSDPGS
# TEST DETAILS: hERG assay using Sophion Qube
# Assay type: cell-based
# APPLIED CONDITIONS: Sophion Qube protocol; read-out: SQ hERG IC50
pIC50: −log10 of the molar value. Where a name gives a salt, the structure may show the parent alone.
MEASURED ENDPOINT: pIC50

COMPOUND: CS(=O)(=O)c1ccc(F)c(C[C@H](N)c2ccccc2-c2noc3cc(Cl)ccc23)n1 [Example 13, hydrochloride]
MEASURED ENDPOINT: pIC50
OBS VALUE: 5.85

COMPOUND: Cc1ccc2c(-c3ccccc3[C@@H](N)Cc3nc(S(C)(=O)=O)ccc3C)noc2c1 [Example 19, hydrochloride]
MEASURED ENDPOINT: pIC50
OBS VALUE: 5.89

COMPOUND: Cc1ccc(S(C)(=O)=O)nc1C[C@H](N)c1ccccc1-c1noc2cc(F)ccc12 [Example 24, hydrochloride]
MEASURED ENDPOINT: pIC50
OBS VALUE: 5.47

COMPOUND: CS(=O)(=O)c1ccc(F)c(C[C@H](N)c2ccccc2-c2noc3c(F)cccc23)n1 [Example 26, hydrochloride]
MEASURED ENDPOINT: pIC50
OBS VALUE: 4.82

COMPOUND: Cc1ccc2c(-c3ccccc3[C@@H](N)Cc3nc(S(C)(=O)=O)ccc3F)noc2c1 [Example 11, hydrochloride]
MEASURED ENDPOINT: pIC50
OBS VALUE: 5.33

COMPOUND: CS(=O)(=O)c1ccc(F)c(C[C@H](N)c2ccccc2-c2noc3ccc(F)cc23)n1 [Example 22, hydrochloride]
MEASURED ENDPOINT: pIC50
OBS VALUE: 5.24

COMPOUND: Cc1ccc(S(C)(=O)=O)nc1C[C@H](N)c1ccccc1-c1noc2cc(Cl)ccc12 [Example 23, hydrochloride]
MEASURED ENDPOINT: pIC50
OBS VALUE: 5.92

COMPOUND: N#Cc1ccc2c(-c3ccccc3[C@@H](N)Cc3nc(Br)ccc3F)noc2c1 [Example 17, hydrochloride]
MEASURED ENDPOINT: pIC50
OBS VALUE: 5.51

COMPOUND: CS(=O)(=O)c1ccc(F)c(C[C@H](N)c2ccccc2-c2noc3cc(F)ccc23)n1 [Example 20, hydrochloride]
MEASURED ENDPOINT: pIC50
OBS VALUE: 5.54

====

Recorded IC50 for the following molecules
# ASSAY SYSTEM: HCN1 (Homo sapiens (Human), UniProt O60741)
# Sequence (O60741 whole entry, species assumed): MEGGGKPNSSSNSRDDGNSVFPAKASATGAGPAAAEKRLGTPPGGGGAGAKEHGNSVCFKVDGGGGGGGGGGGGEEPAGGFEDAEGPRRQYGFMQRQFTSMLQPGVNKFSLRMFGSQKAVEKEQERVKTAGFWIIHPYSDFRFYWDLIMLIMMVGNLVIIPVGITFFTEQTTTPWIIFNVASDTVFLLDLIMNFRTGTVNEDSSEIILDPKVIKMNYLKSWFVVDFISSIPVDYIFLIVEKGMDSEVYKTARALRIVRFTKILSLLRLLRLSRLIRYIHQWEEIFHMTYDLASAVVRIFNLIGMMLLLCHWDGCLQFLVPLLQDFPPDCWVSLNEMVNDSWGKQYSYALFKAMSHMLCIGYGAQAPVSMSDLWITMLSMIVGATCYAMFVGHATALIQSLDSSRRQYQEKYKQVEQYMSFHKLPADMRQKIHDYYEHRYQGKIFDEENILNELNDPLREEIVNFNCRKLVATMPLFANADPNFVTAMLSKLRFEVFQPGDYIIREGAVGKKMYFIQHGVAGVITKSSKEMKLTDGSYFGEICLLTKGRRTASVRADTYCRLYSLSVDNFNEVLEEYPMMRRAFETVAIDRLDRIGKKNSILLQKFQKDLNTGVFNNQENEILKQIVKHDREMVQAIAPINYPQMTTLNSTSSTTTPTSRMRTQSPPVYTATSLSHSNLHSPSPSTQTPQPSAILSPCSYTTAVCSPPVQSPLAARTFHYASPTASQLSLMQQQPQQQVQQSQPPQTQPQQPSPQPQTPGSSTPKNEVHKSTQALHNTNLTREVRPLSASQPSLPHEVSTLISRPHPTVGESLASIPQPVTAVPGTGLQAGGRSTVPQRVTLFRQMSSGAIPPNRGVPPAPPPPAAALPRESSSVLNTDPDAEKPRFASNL
# TEST DETAILS: HCN1 current assay using the Sophion Qube
# Format: cell-based
# APPLIED CONDITIONS: Sophion Qube protocol; read-out: SQ HCN1 IC50
# Description: Example 126B, Using the Sophion Qube Solutions for recording HCN currents were: This voltage protocol was applied every 20 seconds for the duration of the experiment. Both the vehicle (0.3% DMSO) and full block (3 mM CsCl) addition periods were applied for 10 experimental sweeps each. The current amplitudes were measured by subtracting metric A from metric B (see FIG. 2) with inhibition calculated by normalising to the vehicle addition (0.3% DMSO) and full inhibition by 3 mM CsCl in the same well. […]
Structures can show the parent of a compound that is named as a salt.
MEASURED ENDPOINT: IC50 (µM)

MOLECULE: N[C@@H](Cc1nc(Br)ccc1F)c1ccccc1-c1noc2cc(F)ccc12 [Example 15, hydrochloride]
MEASURED ENDPOINT: IC50
OBS VALUE: 5.1
--
MOLECULE: CS(=O)(=O)c1ccc(F)c(C[C@H](N)c2ccccc2-c2noc3ccc(F)cc23)n1 [Example 22, hydrochloride]
MEASURED ENDPOINT: IC50
OBS VALUE: 27.4
--
MOLECULE: CS(=O)(=O)c1ccc(F)c(C[C@H](N)c2ccccc2-c2noc3cc(F)ccc23)n1 [Example 20, hydrochloride]
MEASURED ENDPOINT: IC50
OBS VALUE: 16.9
--
MOLECULE: CS(=O)(=O)c1ccc(F)c(C[C@H](N)c2ccccc2-c2noc3c(F)cccc23)n1 [Example 26, hydrochloride]
MEASURED ENDPOINT: IC50
OBS VALUE: 25.7

====

Recorded pIC50 for the following molecules
# ASSAY SYSTEM: HCN2 (Homo sapiens (Human))
# Sequence (Q9UL51 whole entry): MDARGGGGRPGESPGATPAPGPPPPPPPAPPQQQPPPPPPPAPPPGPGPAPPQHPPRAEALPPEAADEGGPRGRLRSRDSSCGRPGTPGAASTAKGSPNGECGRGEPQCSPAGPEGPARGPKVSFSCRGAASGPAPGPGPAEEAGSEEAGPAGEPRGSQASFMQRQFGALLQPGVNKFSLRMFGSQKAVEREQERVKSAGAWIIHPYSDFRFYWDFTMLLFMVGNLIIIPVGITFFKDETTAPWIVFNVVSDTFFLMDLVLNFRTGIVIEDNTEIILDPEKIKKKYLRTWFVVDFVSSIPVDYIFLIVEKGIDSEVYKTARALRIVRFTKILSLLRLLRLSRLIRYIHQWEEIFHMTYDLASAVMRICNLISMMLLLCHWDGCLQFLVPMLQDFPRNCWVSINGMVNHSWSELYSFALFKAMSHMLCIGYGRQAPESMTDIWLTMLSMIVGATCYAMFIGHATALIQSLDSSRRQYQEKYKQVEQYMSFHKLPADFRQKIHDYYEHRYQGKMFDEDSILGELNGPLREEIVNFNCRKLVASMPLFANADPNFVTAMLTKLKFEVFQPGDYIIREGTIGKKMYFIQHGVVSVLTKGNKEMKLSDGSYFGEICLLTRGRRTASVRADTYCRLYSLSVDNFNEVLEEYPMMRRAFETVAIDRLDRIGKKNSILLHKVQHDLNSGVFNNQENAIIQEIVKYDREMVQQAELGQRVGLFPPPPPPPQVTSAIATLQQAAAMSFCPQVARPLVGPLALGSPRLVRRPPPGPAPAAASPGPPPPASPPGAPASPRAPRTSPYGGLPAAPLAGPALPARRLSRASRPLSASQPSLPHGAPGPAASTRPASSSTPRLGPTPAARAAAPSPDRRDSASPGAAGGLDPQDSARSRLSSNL
# TEST DETAILS: HCN2 current assay using PatchXpress 7000A
# Type: cell-based
# APPLIED CONDITIONS: PatchXpress protocol; read-out: PX HCN2 IC50
pIC50: −log10 of the molar value. Where a name gives a salt, the structure may show the parent alone.
MEASURED ENDPOINT: pIC50

MOLECULE: N[C@@H](Cc1cccc(CCO)n1)c1ccccc1-c1noc2ccccc12 [Example 100, hydrochloride]
MEASURED ENDPOINT: pIC50
OBS VALUE: 5.64
//
MOLECULE: N[C@@H](Cc1cccc(C(F)(F)F)n1)c1ccccc1-c1noc2ccccc12 [Example 62, hydrochloride]
MEASURED ENDPOINT: pIC50
OBS VALUE: 6.15
//
MOLECULE: N[C@@H](Cc1ccccn1)c1cc(Br)ccc1-c1noc2ccccc12
MEASURED ENDPOINT: pIC50
OBS VALUE: 5.74
//
MOLECULE: CC(c1ccccn1)C(N)c1ccccc1-c1noc2ccccc12 (single isomer, unassigned; diastereomer 1) [Example 1]
MEASURED ENDPOINT: pIC50
OBS VALUE: 5.13
//
MOLECULE: Cc1ccc(C)c(C[C@H](N)c2ccccc2-c2noc3ccccc23)n1
MEASURED ENDPOINT: pIC50
OBS VALUE: 6.05
//
MOLECULE: CC(C)n1nc(-c2ccccc2[C@@H](N)Cc2cccc(Br)n2)c2ccccc21 [Example 64, hydrochloride]
MEASURED ENDPOINT: pIC50
OBS VALUE: 5.89
//
MOLECULE: N[C@@H](Cc1cccc(CO)n1)c1ccccc1-c1noc2ccccc12 [Example 98, hydrochloride]
MEASURED ENDPOINT: pIC50
OBS VALUE: 5.70
//
MOLECULE: N[C@@H](Cc1cccc(-c2ncco2)n1)c1ccccc1-c1noc2ccccc12 [Example 118, hydrochloride]
MEASURED ENDPOINT: pIC50
OBS VALUE: 5.77

====

# ASSAY SYSTEM: HCN4 (Homo sapiens (Human), UniProt Q9Y3Q4)
# Sequence (Q9Y3Q4 whole entry, species assumed): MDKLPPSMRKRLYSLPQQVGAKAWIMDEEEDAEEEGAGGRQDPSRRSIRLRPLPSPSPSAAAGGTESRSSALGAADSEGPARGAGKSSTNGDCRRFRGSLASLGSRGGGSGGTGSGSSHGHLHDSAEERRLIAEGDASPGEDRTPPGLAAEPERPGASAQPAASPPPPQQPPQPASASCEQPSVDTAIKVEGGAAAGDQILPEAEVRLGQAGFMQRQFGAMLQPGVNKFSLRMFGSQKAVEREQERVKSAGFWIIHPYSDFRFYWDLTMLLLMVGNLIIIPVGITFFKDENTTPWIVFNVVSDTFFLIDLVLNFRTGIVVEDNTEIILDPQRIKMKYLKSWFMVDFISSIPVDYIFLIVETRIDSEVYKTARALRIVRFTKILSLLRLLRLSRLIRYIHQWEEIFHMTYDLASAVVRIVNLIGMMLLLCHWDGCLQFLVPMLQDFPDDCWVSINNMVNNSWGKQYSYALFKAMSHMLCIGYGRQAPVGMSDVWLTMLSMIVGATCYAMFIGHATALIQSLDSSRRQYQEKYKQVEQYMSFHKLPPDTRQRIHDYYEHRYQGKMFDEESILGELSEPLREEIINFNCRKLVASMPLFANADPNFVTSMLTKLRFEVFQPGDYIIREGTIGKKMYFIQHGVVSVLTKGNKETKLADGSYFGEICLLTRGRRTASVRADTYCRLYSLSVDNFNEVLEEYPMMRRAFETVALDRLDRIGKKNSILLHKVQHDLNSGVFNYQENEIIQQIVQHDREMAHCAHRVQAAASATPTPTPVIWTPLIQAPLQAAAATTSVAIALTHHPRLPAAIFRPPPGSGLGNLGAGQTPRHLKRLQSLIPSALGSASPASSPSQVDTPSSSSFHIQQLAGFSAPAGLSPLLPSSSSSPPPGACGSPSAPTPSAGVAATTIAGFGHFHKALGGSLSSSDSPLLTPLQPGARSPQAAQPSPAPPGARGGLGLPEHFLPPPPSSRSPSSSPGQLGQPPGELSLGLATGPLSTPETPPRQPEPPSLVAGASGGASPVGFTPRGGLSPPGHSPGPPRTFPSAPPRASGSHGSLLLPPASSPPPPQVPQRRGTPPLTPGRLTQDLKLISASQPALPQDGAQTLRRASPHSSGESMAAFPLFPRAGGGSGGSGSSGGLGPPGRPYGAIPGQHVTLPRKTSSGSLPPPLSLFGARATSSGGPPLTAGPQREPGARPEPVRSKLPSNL
# TEST DETAILS: HCN4 current assay using the Sophion Qube
# Format: cell-based
# APPLIED CONDITIONS: Sophion Qube protocol; read-out: SQ HCN4 IC50
# Description: Example 126B, Using the Sophion Qube Solutions for recording HCN currents were: This voltage protocol was applied every 20 seconds for the duration of the experiment. Both the vehicle (0.3% DMSO) and full block (3 mM CsCl) addition periods were applied for 10 experimental sweeps each. The current amplitudes were measured by subtracting metric A from metric B (see FIG. 2) with inhibition calculated by normalising to the vehicle addition (0.3% DMSO) and full inhibition by 3 mM CsCl in the same well. […]
Counter-ions that a name gives are not always drawn.
Recorded IC50 for the following compounds
MEASURED ENDPOINT: IC50 (µM)

COMPOUND: CS(=O)(=O)c1ccc(F)c(C[C@H](N)c2ccccc2-c2noc3c(F)cccc23)n1 [Example 26, hydrochloride]
CENSORING QUALIFIER: >
OBS VALUE: 30

COMPOUND: Cc1ccc2c(-c3ccccc3[C@@H](N)Cc3nc(S(C)(=O)=O)ccc3C)noc2c1 [Example 19, hydrochloride]
CENSORING QUALIFIER: =
OBS VALUE: 13.1

COMPOUND: Cc1ccc2c(-c3ccccc3[C@@H](N)Cc3nc(S(C)(=O)=O)ccc3F)noc2c1 [Example 11, hydrochloride]
CENSORING QUALIFIER: =
OBS VALUE: 30

COMPOUND: Cc1ccc(S(C)(=O)=O)nc1C[C@H](N)c1ccccc1-c1noc2cc(F)ccc12 [Example 24, hydrochloride]
CENSORING QUALIFIER: =
OBS VALUE: 7.8

COMPOUND: CS(=O)(=O)c1ccc(F)c(C[C@H](N)c2ccccc2-c2noc3cc(F)ccc23)n1 [Example 20, hydrochloride]
CENSORING QUALIFIER: >
OBS VALUE: 30

COMPOUND: CS(=O)(=O)c1ccc(F)c(C[C@H](N)c2ccccc2-c2noc3cc(Cl)ccc23)n1 [Example 13, hydrochloride]
CENSORING QUALIFIER: >
OBS VALUE: 30

COMPOUND: CS(=O)(=O)c1ccc(F)c(C[C@H](N)c2ccccc2-c2noc3ccc(F)cc23)n1 [Example 22, hydrochloride]
CENSORING QUALIFIER: =
OBS VALUE: 20.8

====

# ASSAY SYSTEM: HCN1 (Homo sapiens (Human))
# TEST DETAILS: HCN1 current assay using PatchXpress 7000A
# Assay type: cell-based
# APPLIED CONDITIONS: PatchXpress protocol; read-out: PX HCN1 IC50
Where a name gives a salt, the structure may show the parent alone.
MEASURED ENDPOINT: IC50 (µM)

COMPOUND: N[C@@H](Cc1ccccn1)c1ccccc1-c1noc2cc(CO)ccc12 [Example 30, hydrochloride]
ASSAY SYSTEM: HCN1 (Homo sapiens (Human))
OBS VALUE: 3

COMPOUND: N[C@@H](Cc1ncccc1F)c1ccccc1-c1noc2ccccc12 [Example 63, hydrochloride]
ASSAY SYSTEM: HCN1 (Homo sapiens (Human))
OBS VALUE: 8

COMPOUND: CN(C)C(=O)c1ccc(F)c(C[C@H](N)c2ccccc2-c2noc3ccccc23)n1 [Example 74, hydrochloride]
ASSAY SYSTEM: HCN1 (Homo sapiens (Human))
OBS VALUE: 4.6

COMPOUND: COc1ccnc(C[C@H](N)c2ccccc2-c2noc3ccccc23)c1
ASSAY SYSTEM: HCN1 (Homo sapiens (Human))
OBS VALUE: 3.8

COMPOUND: Cc1ccc(F)c(C[C@H](N)c2ccccc2-c2noc3ccccc23)n1 [Example 73, hydrochloride]
ASSAY SYSTEM: HCN1 (Homo sapiens (Human))
OBS VALUE: 0.5

COMPOUND: N[C@@H](Cc1ccc(F)cn1)c1ccccc1-c1noc2ccccc12 [Example 69, hydrochloride]
ASSAY SYSTEM: HCN1 (Homo sapiens (Human))
OBS VALUE: 1.4

COMPOUND: CCc1ccc(C)c(C[C@H](N)c2ccccc2-c2noc3ccccc23)n1 [Example 9, hydrochloride]
ASSAY SYSTEM: HCN1 (Homo sapiens (Human))
OBS VALUE: 0.37

COMPOUND: N#Cc1ccc2c(-c3ccccc3[C@@H](N)Cc3ccccn3)noc2c1
ASSAY SYSTEM: HCN1 (Homo sapiens (Human))
OBS VALUE: 8.9
